measurementTarget: T1, human CD47 (hCD47) expressed on cells (human, UniProt Q08722 19-323)
T1 construct: Transfected CHO cells or endogenous CD47 of human cells; also called CHO-hCD47; CD47 on Raji cells
measurementProtocol: flow cytometry, Raji cells
Let's look at some binders and their measured EC50.
Use µg/mL as the unit, but write only the number.

Recorded results for 2 binders are shown here.
binder	unitAnnotation	EC50
2A1 (mouse antibody from Inhibrx) (antibody, V domains shown) VH: EVQLQQSGAELVRSGASVKLSCTASGFNIKDYYLHWVKQRPEQGLEWIGWIDPDNGDTEFAPKFQGKATMTADTSSNTAYLQLSSLTSEDTAVYYCNAAYGSSSYPMDYWGQGTSVTV VL: DIKMTQSPSSLYASLGERVTITCKASQDIHRYLSWFQQKPGKSPKILIYRANRLVDGVPSRFSGSGSGQDYSLTISSLEYEDMGIYYCLQYDEFPYTFGGGTKLEMK	µg/mL	0.058
Candidate 26 (VT008-AL6-10G3-10K1), mouse IgG (antibody, V domains shown, Recombinant mouse IgG2a or mIgG1 format, by assay) VH: QVQLQQPGPELVKPGASVKLSCKASGYTFTNYWIHWLNQRPGRGLEWIGRIDPNSGGTKYNEKFKSKAILTVDKSSSTTYMQLSSLTSEDSAVYYCARGGYTMDYWGQGTSVTVSS VL: DVVMPQTPLSLPVSLGDHASISCRSSQSLLHSNGNTYLHWYLQKPGQSPKLLIYKVSYRFSGVPDRISGSGSGTDFTLKISRVEAEDLGVYFCFQSTHVPWTFGGGTKLEIK	µg/mL	0.07

Moving on to the next binder.
q: Quick check: EC50 of Candidate 14 (VT008-AL6-14G1-16K1), mouse IgG (antibody, V domains shown, Recombinant mouse IgG2a or mIgG1 format, by assay) VH: QVQLQQPGAELVKPGASLRVSCKASGYTFTNYWMYWVRQRPGRGLEWIGWIDPNSGGTKYNEKFKSKATLTVDKPSSTAYMQLSSLTSEDSAVYNCARGGYTMDYWGQGTSVTVSS VL: DVVMTQTPLSLPVSLGDQASISCRASQSLVHSNGNTYLHWYLQKPGQSPKLLIYKVSNRFSGVPDRFSGSGSGTDFTLKISRVEAEDLGVYFCSQSTHVPLTFGAGTKLELK ?
a: 0.055

Entry source: patent US20220356245A1
